# System: 521955-158-R2-J5-PDC complex spheroids, viability;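 also: spheroids also contain HUVEC endothelial cells and mesenchymal stem cells as stroma; compound exposure lasted seven days before the viability read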
# procedureText: Anticancer human tumor 521955-158-R2-J5-PDC patient-derived pancreatic carcinoma cell line growth inhibition [RAS]
# runParameters: second compound 0.00949 µM; first compound 3.16 µM; hits give low values
# Excerpt: RAS pathway inhibitors in Combinations in Complex Spheroids A high-throughput screen of multi-cell type tumor spheroids was designed to identify active combinations of RAS pathway inhibitors and targeted small molecules. Complex spheroids include a stromal component modeled by human endothelial cells (HUVEC) and fibroblasts modeled by human mesenchymal stem cells (MSCs). […] Compounds. […] If the clinical Cmax for an agent had not been determined, the highest concentration tested was 10 microM. […]
Response field label: string, one of Condition met (viability, T/C strictly below 20%) or Condition not met.

Request: Is the reported viability, T/C for NC1c2ccccc2OC12CCN(c1cnc3c(N4CCCc5ncccc54)n[nH]c3n1)CC2 (stereo unspecified) + CCn1c(-c2cc(N3CCN(C)CC3)cnc2C(C)OC)c2c3cc(ccc31)-c1csc(n1)CC(NC(=O)C1CC1C)C(=O)N1CCCC(N1)C(=O)OCC(C)(C)C2 strictly below 20%?
Response: Condition met

Request: Is the reported viability, T/C for CC1(O)CCCC1n1c(=O)c(C(F)F)cc2cnc(NC3CCN(S(C)(=O)=O)CC3)nc21 (stereo unspecified) + CCn1c(-c2cccnc2C(C)OC)c2c3cc(ccc31)N1CCOC(CC(NC(=O)C(C(C)C)N(C)C(=O)C3(F)CCN(C(=O)C#CC(C)(C)N(C)C)CC3)C(=O)N3CCCC(N3)C(=O)OCC(C)(C)C2)C1 strictly below 20%?
Response: Condition not met

Request: Is the reported viability, T/C for CCC(CC)c1cc(NC2CCC(N)C2)n2nccc2n1 (stereo unspecified) + CCn1c(-c2cc(N3CCN(C)CC3)cnc2C(C)OC)c2c3cc(ccc31)-c1csc(n1)CC(NC(=O)C1CC1C)C(=O)N1CCCC(N1)C(=O)OCC(C)(C)C2 strictly below 20%?
Response: Condition met

Request: Is the reported viability, T/C for CC(C)NCC(C(=O)N1CCN(c2ncnc3c2C(C)CC3O)CC1)c1ccc(Cl)cc1 (stereo unspecified) + CCn1c(-c2cc(N3CCN(C)CC3)cnc2C(C)OC)c2c3cc(ccc31)-c1csc(n1)CC(NC(=O)C1CC1C)C(=O)N1CCCC(N1)C(=O)OCC(C)(C)C2 strictly below 20%?
Response: Condition met

Request: Is the reported viability, T/C for C[C@@H](NC(=O)c1ncnc(N)c1Cl)c1ncc(C(=O)Nc2cc(C(F)(F)F)c(Cl)cn2)s1 + CCn1c(-c2cc(N3CCN(C)CC3)cnc2C(C)OC)c2c3cc(ccc31)-c1csc(n1)CC(NC(=O)C1CC1C)C(=O)N1CCCC(N1)C(=O)OCC(C)(C)C2 strictly below 20%?
Response: Condition not met

Request: Is the reported viability, T/C for CC(=O)OC12COC1CC(O)C1(C)C(=O)C(O)C3=C(C)C(OC(=O)C(O)C(NC(=O)OC(C)(C)C)c4ccccc4)CC(O)(C(OC(=O)c4ccccc4)C21)C3(C)C (stereo unspecified) + CCn1c(-c2cc(N3CCN(C)CC3)cnc2C(C)OC)c2c3cc(ccc31)-c1csc(n1)CC(NC(=O)C1CC1C)C(=O)N1CCCC(N1)C(=O)OCC(C)(C)C2 strictly below 20%?
Response: Condition met

Request: Is the reported viability, T/C for CCC(CC)c1cc(NC2CCC(N)C2)n2nccc2n1 (stereo unspecified) + CCn1c(-c2cccnc2C(C)OC)c2c3cc(ccc31)N1CCOC(CC(NC(=O)C(C(C)C)N(C)C(=O)C3(F)CCN(C(=O)C#CC(C)(C)N(C)C)CC3)C(=O)N3CCCC(N3)C(=O)OCC(C)(C)C2)C1 strictly below 20%?
Response: Condition met

Request: Is the reported viability, T/C for CC(Nc1ccc2c(c1)OCCn1cc(N3C(=O)OCC3C(F)F)nc1-2)C(N)=O (stereo unspecified) + CCn1c(-c2cc(N3CCN(C)CC3)cnc2C(C)OC)c2c3cc(ccc31)-c1csc(n1)CC(NC(=O)C1CC1C)C(=O)N1CCCC(N1)C(=O)OCC(C)(C)C2 strictly below 20%?
Response: Condition met

Request: Is the reported viability, T/C for CC(=O)OC12COC1CC(O)C1(C)C(=O)C(O)C3=C(C)C(OC(=O)C(O)C(NC(=O)OC(C)(C)C)c4ccccc4)CC(O)(C(OC(=O)c4ccccc4)C21)C3(C)C (stereo unspecified) + CCn1c(-c2cccnc2C(C)OC)c2c3cc(ccc31)N1CCOC(CC(NC(=O)C(C(C)C)N(C)C(=O)C3(F)CCN(C(=O)C#CC(C)(C)N(C)C)CC3)C(=O)N3CCCC(N3)C(=O)OCC(C)(C)C2)C1 strictly below 20%?
Response: Condition not met

Request: Is the reported viability, T/C for Cc1nc(N2CCC3(CC2)COC(C)C3N)c(CO)nc1Sc1ccnc(N)c1Cl (stereo unspecified) + CCn1c(-c2cccnc2C(C)OC)c2c3cc(ccc31)N1CCOC(CC(NC(=O)C(C(C)C)N(C)C(=O)C3(F)CCN(C(=O)C#CC(C)(C)N(C)C)CC3)C(=O)N3CCCC(N3)C(=O)OCC(C)(C)C2)C1 strictly below 20%?
Response: Condition not met

Request: Is the reported viability, T/C for NC1c2ccccc2OC12CCN(c1cnc3c(N4CCCc5ncccc54)n[nH]c3n1)CC2 (stereo unspecified) + CCn1c(-c2cccnc2C(C)OC)c2c3cc(ccc31)N1CCOC(CC(NC(=O)C(C(C)C)N(C)C(=O)C3(F)CCN(C(=O)C#CC(C)(C)N(C)C)CC3)C(=O)N3CCCC(N3)C(=O)OCC(C)(C)C2)C1 strictly below 20%?
Response: Condition not met

Request: Is the reported viability, T/C for Cc1nc(N2CCC3(CC2)COC(C)C3N)c(CO)nc1Sc1ccnc(N)c1Cl (stereo unspecified) + CCn1c(-c2cc(N3CCN(C)CC3)cnc2C(C)OC)c2c3cc(ccc31)-c1csc(n1)CC(NC(=O)C1CC1C)C(=O)N1CCCC(N1)C(=O)OCC(C)(C)C2 strictly below 20%?
Response: Condition met

Request: Is the reported viability, T/C for CC1(O)CCCC1n1c(=O)c(C(F)F)cc2cnc(NC3CCN(S(C)(=O)=O)CC3)nc21 (stereo unspecified) + CCn1c(-c2cc(N3CCN(C)CC3)cnc2C(C)OC)c2c3cc(ccc31)-c1csc(n1)CC(NC(=O)C1CC1C)C(=O)N1CCCC(N1)C(=O)OCC(C)(C)C2 strictly below 20%?
Response: Condition not met

Request: Is the reported viability, T/C for CC(C)NCC(C(=O)N1CCN(c2ncnc3c2C(C)CC3O)CC1)c1ccc(Cl)cc1 (stereo unspecified) + CCn1c(-c2cccnc2C(C)OC)c2c3cc(ccc31)N1CCOC(CC(NC(=O)C(C(C)C)N(C)C(=O)C3(F)CCN(C(=O)C#CC(C)(C)N(C)C)CC3)C(=O)N3CCCC(N3)C(=O)OCC(C)(C)C2)C1 strictly below 20%?
Response: Condition not met

Request: Is the reported viability, T/C for CC(Nc1ccc2c(c1)OCCn1cc(N3C(=O)OCC3C(F)F)nc1-2)C(N)=O (stereo unspecified) + CCn1c(-c2cccnc2C(C)OC)c2c3cc(ccc31)N1CCOC(CC(NC(=O)C(C(C)C)N(C)C(=O)C3(F)CCN(C(=O)C#CC(C)(C)N(C)C)CC3)C(=O)N3CCCC(N3)C(=O)OCC(C)(C)C2)C1 strictly below 20%?
Response: Condition not met

Request: Is the reported viability, T/C for C[C@@H](NC(=O)c1ncnc(N)c1Cl)c1ncc(C(=O)Nc2cc(C(F)(F)F)c(Cl)cn2)s1 + CCn1c(-c2cccnc2C(C)OC)c2c3cc(ccc31)N1CCOC(CC(NC(=O)C(C(C)C)N(C)C(=O)C3(F)CCN(C(=O)C#CC(C)(C)N(C)C)CC3)C(=O)N3CCCC(N3)C(=O)OCC(C)(C)C2)C1 strictly below 20%?
Response: Condition not met
